In this section we review reported maximum binding nm shift values for a set of binders.
# test_target: Human Siglec-9-Fc (recombinant human Siglec-9 extracellular domain Q18-G348 fused to human IgG1 Fc) (human)
# Sequence (chain, as listed by the source limits assumed): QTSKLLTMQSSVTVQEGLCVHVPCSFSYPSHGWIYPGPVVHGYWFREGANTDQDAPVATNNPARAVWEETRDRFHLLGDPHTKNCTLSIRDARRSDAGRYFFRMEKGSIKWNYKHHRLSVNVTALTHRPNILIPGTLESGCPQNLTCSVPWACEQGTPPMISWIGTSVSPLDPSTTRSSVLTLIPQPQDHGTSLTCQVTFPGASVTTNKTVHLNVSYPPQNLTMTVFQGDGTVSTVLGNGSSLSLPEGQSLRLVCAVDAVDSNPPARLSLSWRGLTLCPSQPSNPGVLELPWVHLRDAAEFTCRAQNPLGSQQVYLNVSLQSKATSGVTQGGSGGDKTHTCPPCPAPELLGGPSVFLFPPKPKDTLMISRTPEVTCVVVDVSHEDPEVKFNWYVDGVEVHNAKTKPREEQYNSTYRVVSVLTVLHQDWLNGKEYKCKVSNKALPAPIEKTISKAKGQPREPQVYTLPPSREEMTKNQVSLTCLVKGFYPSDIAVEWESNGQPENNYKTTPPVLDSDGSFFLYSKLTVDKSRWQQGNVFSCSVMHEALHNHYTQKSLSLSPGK
# experiment_notes: BLI binning, hSiglec-9-Fc on AHC sensor; competitor bound first (row): 3L02
Unit nm implied. Number only.

Known results for binders:
{"binder": "12L19 (antibody, V domains shown) VH: QVTLKESGPGILQPSQTLSLTCSFSGFSLNTFGMAVGWIRQPSGKGLEWLAHIWWDDSYYFNPALRSRLTISKDTSKNQVFLTIANVDTADTATYYCTRIPDDYDDYAMDYWGQGTSVTVSS VL: DVVMTQTPLSLPVSLGDQASISCRSSQSLVHSNGNTYLHWYLQKPGQSPKLLVYKVSNRFSGVPDRFSGSGSGTDFTLKISRVEAEDLGVYFCSQNTHIPYTFGGGTKLEIK", "result_type": "maximum binding nm shift", "assay_value": 0.09}
{"binder": "13O18 (antibody, V domains shown) VH: EVQLQQSGPELVRPGASVKMSCKASGYTFTDYNMHWVKQSHGKSLEWIGYINPNNGGTTYNQNFKGKATLTVNKSSSTAYMELRSLTSEDSAVYYCAREGYGNYPFYWGQGTTLTVSS VL: DIVLTQSPASLAVSLGQRVTISCRASESVEYYGTSLMQWYQQKPGQPPKLLIYAASNVESGVPARFSGSGSGTDFSLNIHPVEEDDIAMFFCQQDRKVPYTFGGGTKLEIK", "result_type": "maximum binding nm shift", "assay_value": 0.271}
{"binder": "12P18 (antibody, V domains shown) VH: QVQLQQSGAELVRPGASVTLSCKASGYTFTDYEMHWVKQTPVHGLEWIGAIDPEAGGTAYNRKFKGKAILTADKSSSTAYMELRSLTSEDSAVYYCTNLGRDYWGQGTTLTVSS VL: DIVMSQSPSSLAVSVGEKVTMSCKSSQSLLYSSTQKNYLAWYQQKPGQSPKRLIYWASTRESGVPDRFTGSGSGTDFTLTISSVKAEDLAVYYCQQYYSYWTFGGGTKLEIK", "result_type": "maximum binding nm shift", "assay_value": 0.463}
{"binder": "9D21 (antibody, V domains shown) VH: QVQLKESGPGLVAPSQSLSITCTVSGFSLTRYGVSWVRQPPGKGLEWLGVIWGDGSTNYHSALISRLSISKDNSKSQVFLKLNSLQTDDTATYYCARPYYGFFDYWGQGTTLTVSS VL: SIVMTQTPKFLLVSAGDRVTITCKASQSVSNAVAWYQQKPGQSPKMLIYYASNRYTGVPDRFTGSGYGTDFTFTISTVQAEDLAVYFCQQDYSSPYTFGGGTKLEIK", "result_type": "maximum binding nm shift", "assay_value": 0.745}
{"binder": "9C15 (antibody, V domains shown) VH: QVQLQQPGAELVKPGASVKMSCKASGYTFTSYWITWLNQRPGQGLEWIGDIYPGSGGTNYNERFKSKATLTVDTSSSTAYMQLSSLTSEDSAVYYCARSGGWAMDYWGQGTSVTVSS VL: DIQMTQTTSSLSASLGDRVTISCRASQDISNYLNWYQQKPDGTVKLLIYYKSGLHSGVPSRFSGSGSGTDYSLTISNLEQEDIATYFCQQGNTLPFTFGGGTKLEIK", "result_type": "maximum binding nm shift", "assay_value": 0.472}

## Task Any idea what maximum binding nm shift was measured for 12G23 (antibody, V domains shown) VH: EVQLQQSGPELVRPGASVKMSCKASGYTFTDYNMHWVKQSHGKSLEWIGYINPNNGGTSYNQKFKGKATLTVNKSSSTAYMELRSLTSDDSAVYYCAREGYGNYPFYWGQGTTLTVSS VL: DIVLTQSPASLAVSLGQRVTISCRGSESVEYYGTSLMQWYQQKPGQPPKLLIYAASNVESGVPARFSGSGSGTDFSLNIHPVEEDDIAMYFCQQDRKVPYTFGGGTKLEIK ?
## Result 0.277

Origin of the recorded values: patent US20220396627A1
